List of melting point values.

Molecular String: CCCc1nc2c(N)nc3ccccc3c2n1CCC(=O)N(C)C
melting point: 207 to 209 °C

Molecular String: CCc1nc2c(N)nc3ccccc3c2n1CC(C)(C)C(N)=O
melting point: 279 to 281 °C

Molecular String: CCCc1nc2c(N)nc(C)c(C)c2n1CCCC(=O)N1CCOCC1
melting point: 164 to 165 °C

Molecular String: Nc1nc2ccccc2c2c1ncn2CCCCCC(=O)N1CCOCC1
melting point: 166 to 168 °C

Molecular String: CCCNC(=O)CCCCCn1c(CCC)nc2c(N)nc3ccccc3c21
melting point: 139 to 141 °C

Molecular String: CC(C)(Cn1c(CO)nc2c(N)nc3ccccc3c21)C(N)=O
melting point: 201 to 203 °C

Molecular String: Cc1nc2c(N)nc3ccccc3c2n1CCC(=O)N1CCOCC1
melting point: 166 to 169 °C

Molecular String: CCCc1nc2c(N)nc3ccccc3c2n1CC(C)(C)C(N)=O
melting point: 219 to 221 °C

Molecular String: CCCc1nc2c(N)nc3ccccc3c2n1CC(C)(C)C(=O)N1CCOCC1
melting point: 212 to 214 °C

Molecular String: CCOCc1nc2c(N)nc3ccccc3c2n1CC1(C(N)=O)CCCCC1
melting point: 221 to 223 °C

Molecular String: CCCc1nc2c(N)nc3cccnc3c2n1CCCCCC(=O)N1CCOCC1
melting point: 148 to 150 °C

Molecular String: CCc1nc2c(N)nc(C)c(C)c2n1CCCC(=O)N1CCOCC1
melting point: 209 to 210 °C

Molecular String: CCOCc1nc2c(N)nc3ccccc3c2n1CCCCC(N)=O
melting point: 198 to 200 °C

Molecular String: COCCc1nc2c(N)nc3ccccc3c2n1CCCCC(=O)N1CCOCC1
melting point: 128 to 129 °C

Molecular String: CCOCc1nc2c(N)nc3ccccc3c2n1CC1(C(N)=O)CC1
melting point: 230.5 to 232.5 °C

Molecular String: CCOCc1nc2c(N)nc3ccccc3c2n1CCC(N)=O
melting point: > 250 °C

Molecular String: CCOCc1nc2c(N)nc3ccccc3c2n1CCCCCC(=O)N1CCOCC1
melting point: 160 to 162 °C

Molecular String: CCCc1nc2c(N)nc3ccccc3c2n1CCCCCC(=O)NC
melting point: 158 to 159 °C

Molecular String: CCCc1nc2c(N)nc3ccccc3c2n1CC(N)=O
melting point: > 300 °C

Molecular String: COCCc1nc2c(N)nc3ccccc3c2n1CCC(=O)N1CCOCC1
melting point: 125 to 126 °C

----------
Molecular String: Cc1nc2c(N)nc3ccccc3c2n1CC(C)(C)C(N)=O
melting point: 284 to 287 °C
--
Molecular String: CCOCc1nc2c(N)nc3ccccc3c2n1CCCCC(=O)N1CCOCC1
melting point: 128 to 129 °C
--
Molecular String: CCCc1nc2c(N)nc3ccccc3c2n1CCC(=O)NC
melting point: 177 to 178 °C
--
Molecular String: CCCc1nc2c(N)nc3c(c2n1CCCCCC(=O)N1CCOCC1)CCCC3
melting point: 162 to 163 °C
--
Molecular String: CCCCc1nc2c(N)nc3ccccc3c2n1CCCCC(N)=O
melting point: 219 to 221 °C
--
Molecular String: CCOCc1nc2c(N)nc(C)c(C)c2n1CCCC(=O)N1CCOCC1
melting point: 156 to 158 °C
--
Molecular String: CCOCc1nc2c(N)nc3ccccc3c2n1CCCC(N)=O
melting point: 233 to 235 °C
--
Molecular String: CCCNC(=O)CCCn1c(CCC)nc2c(N)nc3ccccc3c21
melting point: 161 to 163 °C
--
Molecular String: CCc1nc2c(N)nc(C)c(C)c2n1CCCC(N)=O
melting point: 228 to 230 °C
--
Molecular String: CCCc1nc2c(N)nc3ccccc3c2n1CCCC(=O)N1CCOCC1
melting point: 200 to 202 °C
--
Molecular String: CCOCc1nc2c(N)nc3cccnc3c2n1CCCC(=O)N1CCOCC1
melting point: 156 to 157 °C
--
Molecular String: CCCNC(=O)CCn1c(CCC)nc2c(N)nc3ccccc3c21
melting point: 157 to 158 °C
--
Molecular String: CCOCc1nc2c(N)nc3ccccc3c2n1CC(C)(C)C(N)=O
melting point: 241 to 243 °C
--
Molecular String: Cc1nc2c(N)nc3ccccc3c2n1CCCCC(=O)N1CCOCC1
melting point: 218 to 219 °C
--
Molecular String: CCCNC(=O)CCn1c(C)nc2c(N)nc3ccccc3c21
melting point: 188 to 189 °C
--
Molecular String: CCOCc1nc2c(N)nc3cccnc3c2n1CCCCCC(=O)N1CCOCC1
melting point: 168 to 170 °C
--
Molecular String: CCCNC(=O)CCCCCn1c(COCC)nc2c(N)nc3ccccc3c21
melting point: 161 to 162 °C
--
Molecular String: CCCNC(=O)CCn1cnc2c(N)nc3ccccc3c21
melting point: 212 to 214 °C
--
Molecular String: CCCc1nc2c(N)nc3ccccc3c2n1CCCCC(=O)N1CCOCC1
melting point: 178 to 179 °C
--
Molecular String: CCCCc1nc2c(N)nc3ccccc3c2n1CC(C)(C)C(N)=O
melting point: 231 to 233 °C

----------
List of melting point values.
Counter-ions that a name gives are not always drawn.
Measurement Label: melting point

Compound: CCCc1nc2c(N)nc3ccccc3c2n1CCCCCC(N)=O
Value Reported: 210 to 211 °C
//
Compound: CC(C)(Cn1cnc2c(N)nc3ccccc3c21)C(N)=O (as salt: salt)
Value Reported: 287 to 289 °C
//
Compound: CCCc1nc2c(N)nc3ccccc3c2n1CCCCCCCCCCCC(=O)NC
Value Reported: 135 to 137 °C
//
Compound: CCCc1nc2c(N)nc3ccccc3c2n1CCC(N)=O (as salt: hydrochloride)
Value Reported: 242 to 243 °C
//
Compound: CCCc1nc2c(N)nc3cccnc3c2n1CCCCCC(N)=O
Value Reported: 216.5 to 217.5 °C
//
Compound: CCCc1nc2c(N)nc3ccccc3c2n1CCCCCC(=O)N1CCOCC1
Value Reported: 149 to 151 °C
//
Compound: CCCc1nc2c(N)nc3ccccc3c2n1CC1(C(N)=O)CCC1
Value Reported: 234 to 237 °C
//
Compound: CCCCc1nc2c(N)nc3ccccc3c2n1CCCCC(=O)N1CCOCC1
Value Reported: 141 to 143 °C
//
Compound: CCCc1nc2c(N)nc3ccccc3c2n1CCCCC(N)=O
Value Reported: 202 to 203 °C

----------
List of melting point values.
Measurement Label: melting point

Molecule: CCc1nc2c(N)nc3cccnc3c2n1CCCCCC(=O)N1CCOCC1 [Example 55]
Value Reported: 163 to 165 °C
//
Molecule: CCCc1nc2c(N)nc3c(c2n1CCCCC(=O)N1CCOCC1)CCCC3 [Example 50]
Value Reported: 158 to 160 °C
//
Molecule: COCCc1nc2c(N)nc3ccccc3c2n1CCCCCC(=O)N1CCOCC1 [Example 12]
Value Reported: 131 to 132 °C
//
Molecule: CCOCc1nc2c(N)nc3ccccc3c2n1CCC(=O)N1CCOCC1 [Example 23]
Value Reported: 187 to 189 °C
//
Molecule: CCOCc1nc2c(N)nc(C)c(C)c2n1CCCC(N)=O [Example 44]
Value Reported: 199 to 200 °C
//
Molecule: CCCNC(=O)CCCCCn1cnc2c(N)nc3ccccc3c21 [Example 10]
Value Reported: 128 to 130 °C
//
Molecule: CCCc1nc2c(N)nc3cccnc3c2n1CCCC(=O)N1CCOCC1 [Example 37]
Value Reported: 196 to 197 °C
//
Molecule: CCc1nc2c(N)nc3cccnc3c2n1CCCCCC(N)=O [Example 56]
Value Reported: 220 to 221 °C
//
Molecule: CCOCc1nc2c(N)nc3cccnc3c2n1CCCC(N)=O [Example 39]
Value Reported: 231 to 232 °C
//
Molecule: CCOCc1nc2c(N)nc3cccnc3c2n1CCCCCC(N)=O [Example 58]
Value Reported: 215 to 217 °C

----------
List of melting point values.

Molecular String: CCCc1nc2c(N)nc(C)c(C)c2n1CCCC(N)=O
melting point: 226 to 228 °C
//
Molecular String: CCCc1nc2c(N)nc3ccccc3c2n1CCC(=O)N1CCOCC1
melting point: 172 to 173 °C
//
Molecular String: CNC(=O)CCn1cnc2c(N)nc3ccccc3c21
melting point: > 260 °C
//
Molecular String: CCOCc1nc2c(N)nc3ccccc3c2n1CCCC(=O)N1CCOCC1
melting point: 201 to 203 °C
//
Molecular String: CCCc1nc2c(N)nc3ccccc3c2n1CCCC(N)=O
melting point: 249 to 251 °C
//
Molecular String: CCCc1nc2c(N)nc3c(c2n1CCCC(=O)N1CCOCC1)CCCC3
melting point: 181 to 183 °C
//
Molecular String: Cc1nc2c(N)nc3ccccc3c2n1CCC(N)=O
melting point: 237 to 239 °C
//
Molecular String: CCc1nc2c(N)nc3ccccc3c2n1CC1(C(N)=O)CCC1
melting point: 227 to 230 °C
